Assignment: determine reported Response for the given binders.
Target: T1, monkey Trop2 protein (Sino Biological, #90893-C08H) (monkey, UniProt A0A2K5UE71 27-274)
T1 construct: bought protein; also called monkey Trop2 protein antigen (His tag)
T1 sequence: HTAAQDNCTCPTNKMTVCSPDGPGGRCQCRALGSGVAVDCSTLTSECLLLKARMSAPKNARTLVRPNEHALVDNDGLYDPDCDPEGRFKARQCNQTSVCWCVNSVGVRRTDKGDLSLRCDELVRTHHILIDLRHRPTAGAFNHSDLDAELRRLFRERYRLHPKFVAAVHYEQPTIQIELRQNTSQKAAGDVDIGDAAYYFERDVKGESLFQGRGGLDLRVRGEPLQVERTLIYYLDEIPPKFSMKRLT
Test: BLI, Octet RED96, AHC sensor

[
  {
    "binder": "PR001166 (antibody, human IgG1, kappa, V domains shown, fully human IgG1/kappa; also called antibody No. (27)) VH: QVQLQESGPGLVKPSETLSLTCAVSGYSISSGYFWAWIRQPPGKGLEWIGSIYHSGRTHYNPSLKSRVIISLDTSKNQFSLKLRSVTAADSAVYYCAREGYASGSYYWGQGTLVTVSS VL: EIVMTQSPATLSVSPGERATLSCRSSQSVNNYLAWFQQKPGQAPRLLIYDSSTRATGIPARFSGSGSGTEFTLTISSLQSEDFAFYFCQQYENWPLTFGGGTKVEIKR",
    "measured-quantity": "Response",
    "measurement": 0.322
  }
]

// below: Response requested for another binder
State the recorded Response for this entry: PR001151 (antibody, human IgG1, kappa, V domains shown, fully human IgG1/kappa; also called antibody No. (14)) VH: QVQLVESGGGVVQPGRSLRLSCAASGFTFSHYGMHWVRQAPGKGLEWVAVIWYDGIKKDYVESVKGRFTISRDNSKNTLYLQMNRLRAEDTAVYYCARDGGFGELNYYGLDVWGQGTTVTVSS VL: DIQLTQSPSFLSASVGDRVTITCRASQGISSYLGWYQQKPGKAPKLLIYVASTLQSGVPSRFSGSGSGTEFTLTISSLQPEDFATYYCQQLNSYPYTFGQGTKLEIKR
0.351
